# Experimental protocol: clinical
# Condition context: human, in vivo, po
Attribute measured: bioavailability

[[record]]
smiles_notation = "Cc1c(-c2ccc(-c3ccccc3F)cc2)nc2ccc(F)cc2c1C(=O)O"
val = "> 90%"

